Exercise: state measured inhibition for each of the molecules provided.
target: 14-3-3 protein zeta/delta (Bos taurus) (UniProt P63103); experiment: inhibitors of 14-3-3 zeta/Bad binding, primary screen, biochemical, TR-FRET, bovine 14-3-3 zeta (AID 781); conditions: TR-FRET 14-3-3zeta/Dy647-pBad peptide displacement, 1 h; at 21.7 µM; hits give high values;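 also: 0% = full 14-3-3 plus peptide FRET controls and 100% = background without 14-3-3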
Sequence (P63103 whole entry, looked up): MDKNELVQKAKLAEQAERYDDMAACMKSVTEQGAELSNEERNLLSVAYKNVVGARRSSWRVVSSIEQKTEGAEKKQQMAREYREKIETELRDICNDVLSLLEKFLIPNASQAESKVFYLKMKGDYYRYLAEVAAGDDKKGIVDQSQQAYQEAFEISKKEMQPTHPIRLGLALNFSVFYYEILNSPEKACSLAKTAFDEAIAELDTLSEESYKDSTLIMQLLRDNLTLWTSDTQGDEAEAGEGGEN
Out of some 220,000 compounds screened, about 1,600 (0.73%) were called active. The sample holds actives, similar compounds and a random draw of the others, so the mix is not that of the screen.
Write it as a number; the unit % goes unstated.

Problem: Reported inhibition for "CN1CCN(Cc2ccc(OC(F)(F)F)cc2)CC1" : what is it?
Result: 78.5

Problem: Reported inhibition for "CCCCC(=O)N/N=C/c1c(O)n(CCC2=CCCCC2)c(=O)[nH]c1=O" : what is it?
Result: -15.6

Problem: Reported inhibition for Cc1cc(N2C(=O)C3CCCN3C2c2ccc(Cl)c(Cl)c2)no1 (configuration not stated) : what is it?
Result: 5.89

Problem: Reported inhibition for "O=C(COc1ccc2ccccc2c1)N1CCN(Cc2ccncc2)CC1" : what is it?
Result: 87.2

Problem: Reported inhibition for "COc1ccc(CN2CCN(c3ccccc3F)CC2)c(OC)c1" : what is it?
Result: 52.2

Problem: Reported inhibition for "CN1CCN(C(=O)COc2ccc(C(C)(C)C)cc2Br)CC1" : what is it?
Result: -3.25

Problem: Reported inhibition for "O=C1NC(=O)N(CCc2ccc(F)cc2)C(=O)/C1=C/C=C/c1ccccc1" : what is it?
Result: 4.29

Problem: Reported inhibition for "Fc1cccc(F)c1CN1CCN(Cc2c(F)cccc2F)CC1" : what is it?
Result: -4.69

Problem: Reported inhibition for Cc1ccc(CN2CCCC(C(=O)c3ccc4c(c3)OCO4)C2)cc1C (configuration not stated) : what is it?
Result: -6.26

Problem: Reported inhibition for Fc1ccc(C2N3CCCN23)cc1 (configuration not stated) : what is it?
Result: -6.34

Problem: Reported inhibition for CCC1(C)CC(CCNCc2ccc(N(C)C)cc2)(c2ccc(F)cc2)CCO1 (configuration not stated) : what is it?
Result: -2.86

Problem: Reported inhibition for "O=C(Cc1ccccc1)N1CCN(C2CCCCCC2)CC1" : what is it?
Result: 27.6
